Please respond with reported Intensity (%) for every item in the list.
Molecular target: T1, biotin-labelled EZH2 protein (UniProt Q15910 1-746, limits assumed, biotin label (EZ-link NHS-PEO4-Biotinylation kit))
T1 construct: Probe in solution (1 ug/ml) on the KDM2B peptide microarray; also called NHS-PEO4-Biotinylation-labelled EZH2 protein; recombinant protein
T1 sequence (Q15910 whole entry): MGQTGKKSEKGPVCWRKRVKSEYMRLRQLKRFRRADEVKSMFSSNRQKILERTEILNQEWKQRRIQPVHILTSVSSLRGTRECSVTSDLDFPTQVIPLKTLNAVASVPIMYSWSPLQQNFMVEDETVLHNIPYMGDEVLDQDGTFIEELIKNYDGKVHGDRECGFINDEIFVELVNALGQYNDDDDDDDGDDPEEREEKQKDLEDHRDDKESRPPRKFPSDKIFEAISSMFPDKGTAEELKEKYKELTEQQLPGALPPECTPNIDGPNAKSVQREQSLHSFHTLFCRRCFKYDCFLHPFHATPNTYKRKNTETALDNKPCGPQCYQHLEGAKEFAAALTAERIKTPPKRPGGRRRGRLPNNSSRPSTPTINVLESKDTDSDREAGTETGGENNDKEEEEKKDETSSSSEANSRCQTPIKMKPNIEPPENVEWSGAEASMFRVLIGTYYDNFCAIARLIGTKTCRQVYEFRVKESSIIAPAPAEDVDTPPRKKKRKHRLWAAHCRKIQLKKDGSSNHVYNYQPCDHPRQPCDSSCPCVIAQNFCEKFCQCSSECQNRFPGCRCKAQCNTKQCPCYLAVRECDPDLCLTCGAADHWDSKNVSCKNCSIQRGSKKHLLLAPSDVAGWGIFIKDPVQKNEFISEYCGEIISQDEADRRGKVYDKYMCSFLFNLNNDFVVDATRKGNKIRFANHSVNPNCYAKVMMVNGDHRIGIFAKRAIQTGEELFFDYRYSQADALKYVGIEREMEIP
Experiment: KDM2B peptide array probed with biotin-EZH2 1 ug/ml, SA-HRP/ECL;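 also: 100% is the highest background-corrected spot optical density on the membrane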;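 also: Background-corrected optical density of each spot on the membrane, given as percent of the brightest spot (100%), color developed for 5 minutes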
Use % as the unit, but write only the number.

Query: Intensity (%); subject: PLDDGAAHVMHREVW [peptide 212] 0

Also check VYCVTQRSHLTQEYQ [peptide 75] 0

Also ALCSSSCPLLRTLDV [peptide 234] , if possible. 3.59

Also RVERCQRIELKQGYT [peptide 59] ? 11.4

Likewise for NMWPQHLKEKQTEAT [peptide 41] ? 0

Here is the next binder: LRRFKQEPEDELPEA [peptide 178] 0

Quick one: HSFNVPMQLRIYEIE [peptide 67] 0
